- TARGET OF ASSAY: FXR (Homo sapiens)
- Construct: using a full length FXR on a natural response element; expressed in transfected cells
- Sequence (Q96RI1 whole entry, species assumed): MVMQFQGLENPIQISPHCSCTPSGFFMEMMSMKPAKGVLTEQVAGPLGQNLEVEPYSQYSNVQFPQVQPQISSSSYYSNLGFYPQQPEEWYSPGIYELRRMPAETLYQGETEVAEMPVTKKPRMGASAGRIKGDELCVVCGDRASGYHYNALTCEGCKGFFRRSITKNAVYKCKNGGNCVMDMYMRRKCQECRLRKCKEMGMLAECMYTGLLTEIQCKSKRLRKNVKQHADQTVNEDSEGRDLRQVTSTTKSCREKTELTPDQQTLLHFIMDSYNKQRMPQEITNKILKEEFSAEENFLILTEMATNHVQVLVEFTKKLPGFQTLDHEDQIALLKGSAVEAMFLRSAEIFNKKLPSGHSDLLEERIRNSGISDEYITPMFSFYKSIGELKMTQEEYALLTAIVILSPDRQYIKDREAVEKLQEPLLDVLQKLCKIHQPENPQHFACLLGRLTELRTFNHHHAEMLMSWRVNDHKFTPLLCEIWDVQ
- MEASUREMENT DESCRIPTION: cell-based transcription assay, FXR responsive promoter linked to a luciferase reporter
- CONDITIONS USED: FXR activation, cell-based reporter assay; read-out: EC50
pEC50: −log10 of the molar value.
Parameter pEC50: see the listing below.
MEASURED ATTRIBUTE: pEC50

INSERT INTO measurements (molecule, target_of_assay, assay_value) VALUES
  ('COC(=O)/C=C/c1cccc(N(Cc2ccc(-c3ccc(N(C)C)cc3)cc2)C(=O)C2CCCCC2)c1 [Compound 259]', 'FXR (Homo sapiens)', 7.60),
  ('COC(=O)/C=C/c1cccc(N(Cc2cc(OC)cc(OC)c2)C(=O)C2CCCCC2)c1 [Compound 118]', 'FXR (Homo sapiens)', 6.22),
  ('COC(=O)/C=C/c1cccc(N(C(=O)C2CCCCC2)c2ccc3ccccc3c2)c1 [Compound 111]', 'FXR (Homo sapiens)', 6.17),
  ('COCC=Cc1ccc(CN(C(=O)C2CCCCC2)c2cccc(C=CC(=O)OC)c2)cc1 [Compound 156]', 'FXR (Homo sapiens)', 6.63),
  ('CCOCC=Cc1ccc(CN(C(=O)C2CCCCC2)c2cccc(C=CC(=O)OC)c2)cc1 [Compound 157]', 'FXR (Homo sapiens)', 6.70),
  ('COC(=O)C=Cc1cccc(N(Cc2ccc(C=Cc3ccccc3)cc2)C(=O)C2CCCCC2)c1 [Compound 121]', 'FXR (Homo sapiens)', 7.44),
  ('COC(=O)/C=C/c1cccc(N(Cc2ccc3c(c2OC)OC(C)(C)C2C3C2(Cl)Cl)C(=O)C2CCCCC2)c1 (centres unmarked) [Compound 149]', 'FXR (Homo sapiens)', 6.73),
  ('COC(=O)C=Cc1cccc(N(Cc2ccc(C=Cc3ccc(OC)cc3)cc2)C(=O)C2CCCCC2)c1 [Compound 122]', 'FXR (Homo sapiens)', 6.68);
